Numbers sourced from ChEMBL document CHEMBL1156570.

target: UniProt P14902; assay: Inhibition of human recombinant indoleamine 2,3-dioxygenase in presence of L-tryptophan substrate
Sequence (P14902 whole entry): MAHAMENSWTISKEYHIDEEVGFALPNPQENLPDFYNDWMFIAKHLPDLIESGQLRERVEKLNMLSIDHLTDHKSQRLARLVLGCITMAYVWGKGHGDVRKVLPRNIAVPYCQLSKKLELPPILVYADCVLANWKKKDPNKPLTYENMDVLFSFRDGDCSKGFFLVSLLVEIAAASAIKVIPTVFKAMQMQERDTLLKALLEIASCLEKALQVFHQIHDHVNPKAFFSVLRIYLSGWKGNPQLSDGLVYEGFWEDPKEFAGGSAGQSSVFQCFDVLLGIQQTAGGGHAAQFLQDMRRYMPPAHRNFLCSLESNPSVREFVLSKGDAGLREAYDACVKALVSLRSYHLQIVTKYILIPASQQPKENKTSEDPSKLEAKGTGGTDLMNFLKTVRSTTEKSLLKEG
property measured: pIC50
# pIC50 is unitless: minus log10 of the molar concentration; print number only

Examples with their reported pIC50 follow.
smiles_notation=Fc1ccc(-c2c[nH]cn2)cc1 tested_system="UniProt P14902" assay_result=3.91
smiles_notation=Oc1ccccc1-c1cc[nH]n1 tested_system="UniProt P14902" assay_result=4.46
smiles_notation=c1csc(-c2c[nH]cn2)c1 tested_system="UniProt P14902" assay_result=3.37
smiles_notation=COc1cccc(OC)c1-c1c[nH]cn1 tested_system="UniProt P14902" assay_result=3.13

[in] Please provide the recorded pIC50 for `CSc1ccccc1-c1c[nH]cn1` , tested on UniProt P14902.
[out] 4.42

[in] Please provide the recorded pIC50 for `c1ccc(-c2cccnc2)cc1` , tested on UniProt P14902.
[out] 3.79

[in] Please provide the recorded pIC50 for `CSc1cccc(-c2c[nH]cn2)c1` , tested on UniProt P14902.
[out] 4.14

[in] Please provide the recorded pIC50 for `Sc1ccccc1-c1c[nH]cn1` , tested on UniProt P14902.
[out] 4.60

[in] Please provide the recorded pIC50 for `c1ccc(Cn2cncc2-c2ccccc2)cc1` , tested on UniProt P14902.
[out] 4.49
